# System: MYB mRNA
# EXPERIMENT DESCRIPTION: Splicing RT-qPCR assay, MYB canonical (CJ) and alternative (AJ) junction mRNA
# Type: cell-based, human
# MEASUREMENT CONTEXT: Homo sapiens, canonical junction mRNA, qPCR panel; read-out: MYB CJ (decrease in CJ mRNA levels, IC50)
Structures can show the parent of a compound that is named as a salt.
MEASURED QUANTITY: IC50

INSERT INTO assay_data (compound, measured_quantity, reported_result) VALUES
  ('CNC(=O)c1cc(-c2cc3cn(C)nc3c(C)c2O)nc2ncc(N3CCNCC3)cc12', 'IC50', '> 10000 nM'),
  ('COc1nc(-c2cc3cn(C)nc3c(F)c2O)nc2ncc(N3C[C@@H](C)N[C@@H](C)C3)cc12', 'IC50', '< 100 nM'),
  ('CN1CCC[C@H]2CN(c3cnc4nc(-c5cc6cn(C)nc6cc5O)cc(Cl)c4c3)C[C@H]21', 'IC50', '100 to 1000 nM'),
  ('Cc1c(O)c(-c2cc(Cl)c3cc(NC4CCNC4)cnc3n2)cc2cn(C)nc12 (stereo not shown)', 'IC50', '100 to 1000 nM');

Cn1cc2cc(-c3ccc4cc(N5CCC(NC(C)(C)C)C5)cnc4n3)c(O)cc2n1 (stereo not shown) [Compound 134, hydrochloride] tested on MYB mRNA gave IC50: 100 to 1000 nM

`Cc1cn2cc(-c3ccc4cc(N5C[C@@H](C)N[C@@H](C)C5)cnc4n3)cc(F)c2n1` tested on MYB mRNA gave IC50: 100 to 1000 nM

`CN(C)C1CCN(c2cnc3nc(-c4cc5cn(C)nc5cc4O)ccc3c2)CC1` tested on MYB mRNA gave IC50: 100 to 1000 nM

`Cc1c(O)c(-c2cc(Cl)c3cc(N4CCNCC4)cnc3n2)cc2cn(C)nc12` tested on MYB mRNA gave IC50: < 100 nM

CCN[C@H]1CCN(c2cnc3nc(-c4cc5cn(C)nc5cc4O)ccc3c2)C1 [Compound 311, hydrochloride] tested on MYB mRNA gave IC50: 100 to 1000 nM

`Cc1c(O)c(-c2ccc3c(Cl)c(N4C[C@H](C)N[C@@H](C)C4)cnc3n2)cc2cn(C)nc12` tested on MYB mRNA gave IC50: < 100 nM

`C[C@@H]1CN(c2cnc3nc(-c4cc(F)c5nn(C)cc5c4)ccc3c2Cl)C[C@H](C)N1` tested on MYB mRNA gave IC50: 100 to 1000 nM

Cc1nc2c(C)c(O)c(-c3cnc4cc(N5CCC(NC6CC6)C5)ccc4n3)cc2o1 (stereo not shown) tested on MYB mRNA gave IC50: < 100 nM

Cc1cn2cc(-c3ccc4cc(N(C)[C@@H]5CCNC5)cnc4n3)cc(F)c2n1 [Compound 361, hydrochloride] tested on MYB mRNA gave IC50: > 10000 nM

`COc1nc(-c2cc3cn(C)nc3c(C)c2O)nc2ncc(N3C[C@@H](C)N[C@@H](C)C3)cc12` tested on MYB mRNA gave IC50: 100 to 1000 nM

CNC1CCN(c2cnc3nc(-c4cc(F)c5nc(C)cn5c4)ccc3c2)C1 (stereo not shown) tested on MYB mRNA gave IC50: < 100 nM

CCNC1CCN(c2cnc3nc(-c4cc5cn(C)nc5c(C)c4O)ccc3c2)C1 (stereo not shown) tested on MYB mRNA gave IC50: < 100 nM
